Measured values drawn from patent US20060135432A1 for this set.

TEST TARGET: Primate GnRH-2 receptor (Primate (from a CV-1 cell genome))
TEST DETAILS: cell-based or functional assay
[ ]: non-standard residue; d: D form. pGlu = O=C1CC[C@@H](C(=O)O)N1
READOUT KIND: Ratio^a (EC50 relative to the EC50 of GnRH-2), luciferase activation

BINDER: [pGlu]HWSH[dA]LYPG-NH2 (SMILES CC(C)C[C@H](NC(=O)[C@@H](C)NC(=O)[C@H](Cc1c[nH]cn1)NC(=O)[C@H](CO)NC(=O)[C@H](Cc1c[nH]c2ccccc12)NC(=O)[C@H](Cc1c[nH]cn1)NC(=O)[C@@H]1CCC(=O)N1)C(=O)N[C@@H](Cc1ccc(O)cc1)C(=O)N1CCC[C@H]1C(=O)NCC(N)=O) [[D-Ala^6, Leu^7]GnRH-2]
REPORTED: 2.51 ratio to GnRH-2

// recorded Ratio^a (EC50 relative to the EC50 of GnRH-2), luciferase activation for [pGlu]HWSHGWYPG-NH2 (also: I-125 radiolabelled form used as tracer, Purchased from Sigma Co; also called gonadotropin-releasing hormone-2; cGnRH-II) [GnRH-2] : 1 ratio to GnRH-2
